test system: MCF7; assay: Cytotoxicity against human MCF7 cells assessed as cell viability after 48 hrs by MTT assay; format: functional, cell-based; details: MCF7, 48 h
Listed here: items and their measured IC50.
PROPERTY: IC50 (µM)

STRUCTURE_AS_SMILES: CC1(C)CCCC2=CC=C(C=O)CC[C@]21C
UNIT_TAG: µM
ASSAY_VALUE: 166

STRUCTURE_AS_SMILES: C=C1CCC[C@]2(C)CCC(c3cn(-c4ccc(C)cc4)nn3)=CC[C@@]12C
UNIT_TAG: µM
ASSAY_VALUE: 54.9

STRUCTURE_AS_SMILES: C=C1CC[C@@H](C(C)C)[C@]12CC=C(C=O)CC2
UNIT_TAG: µM
ASSAY_VALUE: 210
